microsomal CLint at 1 h, 0.05 µM values, listed per item
run.description: Microsomal stability, mouse liver microsomes
Format: in vitro ADME
assay.setup: mouse, liver microsomes (pooled), pH 7.4; 37 °C
property.measured: microsomal CLint at 1 h, 0.05 µM (µL/min/mg)

>>> print(df.to_string())
                                   compound  quantity_unit  recorded_result
0  CC1=C[C@@H]2Cc3nc4cc(Cl)ccc4c(NCCCCC(=O)N4CCC(NC(=O)Nc5ccc(OC(F)(F)F)cc5)CC4)c3[C@H](C1)C2 [(−)-15]      µL/min/mg              172
1  O=C(Nc1ccc(OC(F)(F)F)cc1)NC1CCN(C(=O)CCNc2c3c(nc4cc(Cl)ccc24)CCCC3)CC1 [12a]      µL/min/mg              109
2  O=C(Nc1ccc(OC(F)(F)F)cc1)NC1CCN(C(=O)CCCCNc2c3c(nc4cc(Cl)ccc24)CCCC3)CC1 [12c]      µL/min/mg              155
3  O=C(Nc1ccc(OC(F)(F)F)cc1)NC1CCN(C(=O)CCCNc2c3c(nc4cc(Cl)ccc24)CCCC3)CC1 [12b]      µL/min/mg               78

* * *

assay.system: recombinant human sEH (Homo sapiens, UniProt P34913)
Sequence (P34913 whole entry): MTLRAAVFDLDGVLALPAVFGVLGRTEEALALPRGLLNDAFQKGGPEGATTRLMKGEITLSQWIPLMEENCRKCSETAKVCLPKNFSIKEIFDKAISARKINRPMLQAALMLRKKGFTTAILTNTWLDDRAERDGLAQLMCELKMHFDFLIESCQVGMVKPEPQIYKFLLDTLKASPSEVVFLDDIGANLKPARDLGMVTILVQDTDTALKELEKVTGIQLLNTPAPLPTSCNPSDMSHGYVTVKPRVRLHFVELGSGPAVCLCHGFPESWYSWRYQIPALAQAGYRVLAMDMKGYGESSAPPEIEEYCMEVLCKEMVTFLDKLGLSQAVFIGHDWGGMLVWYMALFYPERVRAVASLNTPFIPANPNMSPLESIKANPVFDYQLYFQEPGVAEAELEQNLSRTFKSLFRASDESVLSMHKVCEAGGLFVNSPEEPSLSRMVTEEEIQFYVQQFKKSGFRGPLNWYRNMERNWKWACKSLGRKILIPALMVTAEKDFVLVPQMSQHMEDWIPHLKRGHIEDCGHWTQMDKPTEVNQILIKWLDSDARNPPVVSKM
run.description: Human soluble epoxide hydrolase inhibition, fluorescence-based assay (CMNPC substrate)
assay.setup: recombinant human sEH; average of three replicates; read-out: hsEH IC50
property.measured: log10(IC50) (log10 of the value in nM)

                                   compound  recorded_result
0  CC1=C[C@@H]2Cc3nc4cc(Cl)ccc4c(N)c3[C@H](C1)C2 [(−)-3, (−)-huprine Y, reference compound]             4.61
1  CC1=C[C@H]2Cc3nc4cc(Cl)ccc4c(NCCCCC(=O)N4CCC(NC(=O)Nc5ccc(OC(F)(F)F)cc5)CC4)c3[C@@H](C1)C2 [(+)-15]             0.49
2  O=C(Nc1ccc(OC(F)(F)F)cc1)NC1CCN(C(=O)CCCNc2c3c(nc4cc(Cl)ccc24)CCCC3)CC1 [12b]             0.00
3  CC1=C[C@@H]2Cc3nc4cc(Cl)ccc4c(NCCCCC(=O)N4CCC(NC(=O)Nc5ccc(OC(F)(F)F)cc5)CC4)c3[C@H](C1)C2 [(−)-15]            -0.40
4  O=C(Nc1ccc(OC(F)(F)F)cc1)NC1CCN(C(=O)CCNc2c3c(nc4cc(Cl)ccc24)CCCC3)CC1 [12a]            -0.40
5  Nc1c2c(nc3cc(Cl)ccc13)CCCC2 [compound 2, 6-chlorotacrine, reference compound]             4.69
6  O=C(Nc1ccc(OC(F)(F)F)cc1)NC1CCN(C(=O)CCCCNc2c3c(nc4cc(Cl)ccc24)CCCC3)CC1 [12c]             0.66

* * *

run.description: Microsomal stability, rat liver microsomes
Format: in vitro ADME
assay.setup: rat, liver microsomes (pooled), pH 7.4; 37 °C; read-out: t1/2, rat microsomes
property.measured: half-life at 0.05 µM (min)

>>> df
                                   molecule  recorded_result
0  O=C(Nc1ccc(OC(F)(F)F)cc1)NC1CCN(C(=O)CCNc2c3c(nc4cc(Cl)ccc24)CCCC3)CC1 [12a]               12

From: paper PMC8958510
